TARGET_DESC: UniProt:Q9HBX9
PROTOCOL_DESCRIPTION: RXFP1 Hu cAMP (Test A)
Format: cell-based
Parameters: expressed in transfected cells; host or cells: Jump-In T-REx CHO-K1 cells (ThermoFisher), induced with 10 ng/ml doxycycline for 24 h
RECORDED_CONDITIONS: RXFP1 Hu cAMP
PROPERTY_LABEL: Test A Sinf (%)

| COMPOUND | TARGET_DESC | Test A Sinf / % |
| --- | --- | --- |
| COc1cc(F)c(O[C@H]2CC[C@@](C)(C(=O)O)CC2)cc1C(=O)N[C@@H]1[C@H]2CC[C@H](C2)[C@@H]1C(=O)N[C@H]1CCCN(S(=O)(=O)C(F)(F)F)C1 | UniProt:Q9HBX9 | 92 |
| COc1cc(F)c(-c2cnc([C@@H]3C[C@H]3C(=O)O)cn2)cc1C(=O)N[C@@H]1[C@H]2CC[C@H](C2)[C@@H]1C(=O)Nc1cccc(S(=O)(=O)C(F)(F)F)c1 (single isomer, unassigned) [Example 264] | UniProt:Q9HBX9 | 101 |
| CC1(CNC(=O)[C@H]2[C@@H]3CC[C@@H](C3)[C@H]2NC(=O)c2cc(O[C@H]3CC[C@@](C)(C(=O)O)CC3)cc3cccnc23)CCC1 | UniProt:Q9HBX9 | 99 |
| CC1(CNC(=O)[C@H]2[C@H]3CC[C@H](C3)[C@H]2NC(=O)c2cc(O[C@H]3CC[C@@](C)(C(=O)O)CC3)c(C#N)cc2F)CCC1 | UniProt:Q9HBX9 | 107 |
| COc1cc(F)c(O[C@H]2CC[C@@](C)(C(=O)O)CC2)cc1C(=O)N[C@@H]1CCC[C@@H]1C(=O)NC(C(C)C)C(C)C | UniProt:Q9HBX9 | 93 |

* * *

PROTOCOL_DESCRIPTION: Solubility (Test F)
Assay type: physicochemical
RECORDED_CONDITIONS: arithmetic mean if run multiple times
PROPERTY_LABEL: solubility (µM)

(1) CCc1cc(OC)c(C(=O)N[C@@H]2[C@H]3CC[C@H](C3)[C@@H]2C(=O)NCC2(C)CCC2)cc1O[C@H]1CC[C@@](C)(C(=O)O)CC1
(2) O=C(N[C@@H]1[C@H]2CC[C@H](C2)[C@@H]1C(=O)Nc1cccc(S(=O)(=O)C(F)(F)F)c1)c1cc(O[C@H]2CC[C@@H](C(=O)O)CC2)c(F)cc1F
(3) COc1cc(F)c(O[C@H]2CC[C@@](C)(C(N)=O)CC2)cc1C(=O)N[C@@H]1[C@H]2CC[C@H](C2)[C@@H]1C(=O)NCC(C)(C)C
Order by solubility, smallest first, the items presented above. Dear reader, please state the labels in the requested order.
3, 1, 2

(1) COc1cc(C#N)c(O[C@H]2CC[C@@](C)(C(=O)O)CC2)cc1C(=O)N[C@@H]1[C@@H]2CC[C@@H](C2)[C@@H]1C(=O)NCC(C)(C)C(F)(F)F
(2) COc1cc(F)c(O[C@H]2CC[C@@H](C(=O)O)CC2)cc1C(=O)N[C@@H]1[C@H]2CC[C@H](C2)[C@@H]1C(=O)Nc1ccc(F)c(S(F)(F)(F)(F)F)c1
Given the listed items, does 1 or 2 have the lesser reported solubility? Pick one; state its label.
2
(2: 240 µM, 1: 910 µM)

* * *

TARGET_DESC: human RXFP1 (Homo sapiens, UniProt Q9HBX9)
Sequence (Q9HBX9 whole entry): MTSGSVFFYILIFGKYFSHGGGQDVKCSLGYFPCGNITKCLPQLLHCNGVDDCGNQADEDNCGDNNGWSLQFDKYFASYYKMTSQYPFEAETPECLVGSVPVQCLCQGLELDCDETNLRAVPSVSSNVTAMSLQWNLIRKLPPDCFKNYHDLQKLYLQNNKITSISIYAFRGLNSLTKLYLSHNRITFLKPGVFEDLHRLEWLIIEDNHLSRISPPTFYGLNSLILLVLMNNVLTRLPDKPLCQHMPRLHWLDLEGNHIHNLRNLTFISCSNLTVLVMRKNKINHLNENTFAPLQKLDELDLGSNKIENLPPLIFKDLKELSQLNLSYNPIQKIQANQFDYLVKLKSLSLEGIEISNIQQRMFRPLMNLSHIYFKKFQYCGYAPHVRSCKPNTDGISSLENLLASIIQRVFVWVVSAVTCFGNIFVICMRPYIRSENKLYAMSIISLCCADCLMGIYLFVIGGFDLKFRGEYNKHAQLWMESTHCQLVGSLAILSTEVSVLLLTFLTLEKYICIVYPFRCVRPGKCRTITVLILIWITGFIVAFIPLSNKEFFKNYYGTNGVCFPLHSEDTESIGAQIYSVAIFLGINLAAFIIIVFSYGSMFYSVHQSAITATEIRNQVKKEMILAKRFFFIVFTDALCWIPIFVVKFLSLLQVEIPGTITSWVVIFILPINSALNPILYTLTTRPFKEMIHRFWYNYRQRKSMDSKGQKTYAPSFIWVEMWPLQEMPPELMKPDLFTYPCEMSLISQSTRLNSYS
PROTOCOL_DESCRIPTION: RXFP1 Hu cAMP (Test A)
Type: cell-based
Set-up: expressed in transfected cells; host or cells: Jump-In T-REx CHO-K1 cells (ThermoFisher), induced with 10 ng/ml doxycycline for 24 h
RECORDED_CONDITIONS: RXFP1 Hu cAMP; read-out: Test A EC50
pEC50: −log10 of the molar value.
PROPERTY_LABEL: pEC50

| COMPOUND | DATA_VALUE |
| --- | --- |
| COc1cc(F)c(-c2ncc(CCC(=O)O)cn2)cc1C(=O)N[C@@H]1[C@H]2CC[C@H](C2)[C@@H]1C(=O)Nc1cccc(S(=O)(=O)C(F)(F)F)c1 [Example 323] | 6.38 |

(a) COc1cc(F)c(O[C@H]2CC[C@@H](C(=O)O)CC2)cc1C(=O)N[C@@H]1[C@H]2CC[C@H](C2)[C@@H]1C(=O)N[C@H](C)C(C)(C)C [Example 200]
(b) COc1cc(C#N)c(O[C@H]2CC[C@@](C)(C(=O)O)CC2)cc1C(=O)N[C@@H]1[C@H]2CC[C@H](C2)[C@@H]1C(=O)NC(C)(C)c1ccccc1 [Example 108]
Given the listed items, does a or b have the lesser reported pEC50? Pick one; state its label.
a

* * *

TARGET_DESC: human RXFP1 (Homo sapiens)
PROTOCOL_DESCRIPTION: RXFP1 Hu cAMP (Test A)
Type: cell-based
Set-up: expressed in transfected cells; host or cells: Jump-In T-REx CHO-K1 cells (ThermoFisher), induced with 10 ng/ml doxycycline for 24 h
RECORDED_CONDITIONS: RXFP1 Hu cAMP
PROPERTY_LABEL: Test A Sinf (%)

| COMPOUND | TARGET_DESC | Test A Sinf, % |
| --- | --- | --- |
| COc1cc(C)c(O[C@H]2CC[C@@H](C(=O)O)CC2)cc1C(=O)N[C@@H]1[C@H]2CC[C@H](C2)[C@@H]1C(=O)Nc1cccc(S(=O)(=O)C(F)(F)F)c1 | human RXFP1 (Homo sapiens) | 97 |
| COc1cc(F)c(OC2CCC(N)(C(=O)O)CC2)cc1C(=O)N[C@@H]1[C@H]2CC[C@H](C2)[C@@H]1C(=O)Nc1cccc(S(=O)(=O)C(F)(F)F)c1 (stereo partly shown) | human RXFP1 (Homo sapiens) | 104 |
| COc1cc(F)c(O[C@H]2CC[C@](C)(C(=O)O)CC2)cc1C(=O)NC1[C@H]2CC[C@H](C2)[C@@H]1C(=O)Nc1cccc(S(=O)(=O)C(F)(F)F)c1 (stereo partly shown) | human RXFP1 (Homo sapiens) | 101 |
| COc1cc(F)c(-c2ccc(F)c(C(=O)O)c2)cc1C(=O)N[C@H]1[C@@H](C(=O)Nc2cccc(S(=O)(=O)C(F)(F)F)c2)[C@@H]2C=C[C@H]1C2 (racemic) | human RXFP1 (Homo sapiens) | 112 |
| COc1cc(F)c(O[C@H]2CC[C@@H](C(=O)O)CC2)cc1C(=O)N[C@@H]1[C@H]2CC[C@H](C2)[C@@H]1C(=O)Nc1cc(F)cc(S(F)(F)(F)(F)F)c1 | human RXFP1 (Homo sapiens) | 110 |
| COc1cc(F)c(O[C@H]2CC[C@@](C)(C(=O)O)CC2)cc1C(=O)N[C@@H]1CCC[C@@H]1C(=O)Nc1cccc(S(=O)(=O)C(F)(F)F)c1 | human RXFP1 (Homo sapiens) | 109 |
| COc1cc(F)c(-c2ccc(CCC(=O)O)nn2)cc1C(=O)N[C@@H]1[C@H]2CC[C@H](C2)[C@@H]1C(=O)Nc1cccc(S(=O)(=O)C(F)(F)F)c1 | human RXFP1 (Homo sapiens) | 104 |
| COc1cc(F)c(O[C@H]2CC[C@@](C)(C(=O)O)CC2)cc1C(=O)N[C@@H]1CCC[C@@H]1C(=O)N[C@H](C)C(C)(C)C | human RXFP1 (Homo sapiens) | 99 |
| COc1cc(F)c(O[C@H]2CC[C@@H](C(N)=O)CC2)cc1C(=O)N[C@H]1[C@@H](C(=O)Nc2ccc(F)c(C(F)(F)F)c2)[C@@H]2C=C[C@H]1C2 | human RXFP1 (Homo sapiens) | 128 |
| COc1cc(C#N)c(O[C@H]2CC[C@@](C)(C(=O)O)CC2)cc1C(=O)N[C@@H]1[C@H]2CC[C@H](C2)[C@@H]1C(=O)N[C@H](C)C1CCCCC1 | human RXFP1 (Homo sapiens) | 95 |
| COc1cc(F)c(O[C@H]2CC[C@@](C)(C(=O)O)CC2)cc1C(=O)N[C@@H]1CCO[C@@H]1C(=O)Nc1cccc(S(=O)(=O)C(F)(F)F)c1 | human RXFP1 (Homo sapiens) | 119 |
| COc1cc(F)c(-c2ccc(OCC(=O)O)cc2)cc1C(=O)N[C@@H]1[C@H]2CC[C@H](C2)[C@@H]1C(=O)NCC(C)(C)C | human RXFP1 (Homo sapiens) | 97 |
| COc1cc(F)c(-c2ccc(C(=O)O)c(F)c2)cc1C(=O)N[C@@H]1[C@H]2CC[C@H](C2)[C@@H]1C(=O)Nc1cccc(S(=O)(=O)C(F)(F)F)c1 | human RXFP1 (Homo sapiens) | 103 |
| COc1cc(F)c(-c2ccc(C(=O)O)cc2)cc1C(=O)N[C@H]1[C@@H](C(=O)Nc2ccc(F)c(C(F)(F)F)c2)[C@@H]2C=C[C@H]1C2 (racemic) | human RXFP1 (Homo sapiens) | 90 |
| COc1cc(F)c(O[C@H]2CC[C@@H](C(=O)O)CC2)cc1C(=O)N[C@@H]1[C@H]2CC[C@H](C2)[C@@H]1C(=O)Nc1nccc(C(F)(F)F)n1 | human RXFP1 (Homo sapiens) | 100 |
| COc1cc(F)c(O[C@H]2CC[C@@](C)(C(=O)O)CC2)cc1C(=O)Nc1cnccc1C(=O)NCC1(C)CCC1 | human RXFP1 (Homo sapiens) | 95 |
| COc1cc(F)c(-c2ccc(C(N)=O)cc2)cc1C(=O)N[C@@H]1[C@H]2CC[C@H](C2)[C@@H]1C(=O)Nc1cccc(S(=O)(=O)C(F)(F)F)c1 | human RXFP1 (Homo sapiens) | 82 |
| COc1cc(C#N)c(O[C@H]2CC[C@@](C)(C(=O)O)CC2)cc1C(=O)Nc1cc(C)ccc1C(=O)NCc1cccc(F)c1 | human RXFP1 (Homo sapiens) | 137 |
| COc1cc(F)c(-c2cccc(CCC(=O)O)c2)cc1C(=O)N[C@@H]1CCC[C@@H]1C(=O)Nc1cccc(S(=O)(=O)C(F)(F)F)c1 | human RXFP1 (Homo sapiens) | 79 |
| COc1cc(F)c(OC2CCC(O)(C(=O)O)CC2)cc1C(=O)NC1C2CCC(C2)C1C(=O)Nc1cccc(S(=O)(=O)C(F)(F)F)c1 (stereo not shown) | human RXFP1 (Homo sapiens) | 104 |
| COc1cc(F)c(O[C@H]2CC[C@@H](C(=O)O)CC2)cc1C(=O)N[C@@H]1[C@H]2CC[C@H](C2)[C@@H]1C(=O)Nc1cc(F)cc(C(F)(F)F)c1 | human RXFP1 (Homo sapiens) | 111 |
| COc1cc(F)c(O[C@H]2CC[C@@](C)(C(=O)O)CC2)cc1C(=O)N[C@@H]1[C@H]2CC[C@H](C2)[C@@H]1C(=O)N[C@H](C)C(F)(F)F | human RXFP1 (Homo sapiens) | 106 |
